Biological target: Tyrosine-protein phosphatase non-receptor type 22 (Homo sapiens)
Assay: LYP phosphatase inhibitors, primary screen, biochemical, DiFMUP fluorescence, recombinant catalytic domain, 10 µM (AID 606)
Conditions: at 10 µM, hits give high values
The campaign covered roughly 52,000 compounds. Fewer than 10 were called active. A selection follows.
We use 6% as the dividing line for inhibition: on or above the line is 1, below is 0.

Worked examples follow.
Is it the case that COc1ccc(C(=O)N2CC(=O)N(CCc3ccccc3)C(=O)C2)cc1OC has inhibition reaching or exceeding 6%?
1

Is it the case that C1CCc2c(nnc3c2-c2nonc2CC3)C1 has inhibition reaching or exceeding 6%?
1

Is it the case that CCN1C(=O)C(O)(CC(=O)c2cc(C)ccc2C)c2ccccc21 (stereo not given) has inhibition reaching or exceeding 6%?
1

Attention now turns to another entry.
Is it the case that O=C(CCn1c(=O)oc2ccccc21)N1CCN(C(c2ccccc2)c2ccccc2)CC1 has inhibition reaching or exceeding 6%?
0

Sourced from PubChem BioAssay AID606
